Attribution: patent EP4786466A1

assay_protocol: in vitro
particulars: human, mcf10a cells
Counter-ions that a name gives are not always drawn.
measured_parameter: viability at 1.25 µM (%)
Quick reminder: number only, in %, skip the unit.

So what does the record say about viability at 1.25 µM for "c1ccc(Nc2nc(Nc3cc(C4CC4)[nH]n3)c3ccccc3n2)cc1" ?
34

// next record "CN(C)S(=O)(=O)c1ccc(Nc2nc(Nc3cc(C4CC4)[nH]n3)c3ccccc3n2)cc1"
21.6

// next record CC(C)NC(=O)N1CC2CC1CN2c1nc(Nc2cn[nH]c2)c2ccccc2n1 (stereo not drawn) [compound 28a]
93.9

// next record "N#Cc1ccc(Nc2nc(Nc3cc(C4CC4)[nH]n3)c3ccccc3n2)cc1"
3.2

// next record OCCNc1nc(Nc2cc(C3CC3)[nH]n2)c2ccccc2n1 [compound 4cf, hydrochloride]
56.4

// next record CCNC(=O)N1CCN(c2nc(Nc3cc(C4CC4)[nH]n3)c3ccccc3n2)CC1 [compound 12c]
61.3

// next record OCCN1CCN(c2nc(Nc3cc(C4CC4)[nH]n3)c3ccccc3n2)CC1 [compound 12b]
123

// next record O=C(Nc1ccc(F)cc1)N1CCN(c2nc(Nc3cc(C4CC4)[nH]n3)c3ccccc3n2)CC1 [compound 12d]
63.7

// next record "CNS(=O)(=O)c1ccc(Nc2nc(Nc3cc(C4CC4)[nH]n3)c3ccccc3n2)cc1"
4.7

// next record "CS(=O)(=O)Cc1ccc(Nc2nc(Nc3cc(C4CC4)[nH]n3)c3ccccc3n2)cc1"
33

// next record CN1CCN(c2nc(Nc3cc(C4CC4)[nH]n3)c3ccccc3n2)CC1 [compound 12a]
82.3

// next record CCNC(=O)N1CC2CC1CN2c1nc(Nc2cc(C3CC3)[nH]n2)c2ccccc2n1 (stereo not drawn) [compound 15a]
37

// next record "c1ccc2c(Nc3cc(C4CC4)[nH]n3)nc(N3CCNCC3)nc2c1"
98

// next record "NS(=O)(=O)c1ccc(Nc2nc(Nc3cc(C4CC4)[nH]n3)c3ccccc3n2)cc1"
9.3

// next record "O=S(=O)(NCCO)c1ccc(Nc2nc(Nc3cc(C4CC4)[nH]n3)c3ccccc3n2)cc1"
5.8

// next record CC(C)(C)OC(=O)N1CC2CC1CN2c1nc(Nc2cc(C3CC3)[nH]n2)c2ccccc2n1 (stereo not drawn)
15.9

// next record "FC(F)(F)c1cc(Nc2nc(Nc3cc(C4CC4)[nH]n3)c3ccccc3n2)ccc1Cl"
115

// next record "c1ccc2c(Nc3cc(C4CC4)[nH]n3)nc(Nc3ccc(Cc4nnn[nH]4)cc3)nc2c1"
110
